Each item that follows carries a reported pEC50.
# measurement.target: human S1P1 receptor (Homo sapiens)
# Construct: membranes used
# Sequence (P21453 whole entry): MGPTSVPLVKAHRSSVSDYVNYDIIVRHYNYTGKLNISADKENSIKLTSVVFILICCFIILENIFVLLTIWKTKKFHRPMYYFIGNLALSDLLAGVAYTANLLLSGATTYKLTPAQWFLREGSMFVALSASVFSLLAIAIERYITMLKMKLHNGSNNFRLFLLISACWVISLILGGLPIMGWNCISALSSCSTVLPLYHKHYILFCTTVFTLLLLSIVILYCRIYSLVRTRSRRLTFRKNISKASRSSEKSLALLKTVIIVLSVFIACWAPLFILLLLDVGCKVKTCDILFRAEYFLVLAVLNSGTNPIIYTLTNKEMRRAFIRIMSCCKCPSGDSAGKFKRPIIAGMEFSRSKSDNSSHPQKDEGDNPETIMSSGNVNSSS
# test.protocol: GTP γ35S binding assay for S1P1 activity
# experimental.context: membranes of cells stably expressing the S1P1 receptor; test concentrations 0.08 to 5,000 nM; 30 min at 25° C.; read-out: S1P1 EC50 (Activity potency: S1P1 receptor from GTP γ35S)
pEC50: −log10 of the molar value.
value.kind: pEC50

> print(dat)
                                   molecule  value.kind  recorded.number
1  CCCN1N=C(c2nc(-c3ccc(CN4CC(C(=O)O)C4)cc3)no2)CC1c1ccccc1 (stereo not shown)       pEC50             7.12
2  CCN1N=C(c2nc(-c3cc(F)c(CN4CC(C(=O)O)C4)c(F)c3)no2)CC1c1ccccc1 (stereo not shown)       pEC50             7.29
3  CCN1N=C(c2nc(-c3ccc(CN4CC(C(=O)O)C4)cc3)no2)CC1c1ccccc1 (stereo not shown)       pEC50             6.60
4  CCc1cc(-c2noc(C3=NN(CC)C(c4ccccc4)C3)n2)ccc1CN1CC(C(=O)O)C1 (stereo not shown)       pEC50             7.62

Attribution: patent US8987467B2
